// provenance: patent US4996227A

Tested on: KS62 strain stem-cell human leukemia cells
Test: Inhibition of human leukemia cell growth in vitro, as done in Example 3
Type: cell-based
Conditions: Homo sapiens; 5.0 mcg/ml
measuredQuantity: inhibition at 5 µg/mL (%)
Answer format: numeric, % implied, no suffix.

query: I would be grateful if you could share the reported inhibition at 5 µg/mL for "CC1(C)OC(=O)C(=Cc2ccc(I)s2)C1=O" .
result: 37

query: I would be grateful if you could share the reported inhibition at 5 µg/mL for "O=C1COC(=O)C1=Cc1ccc(Br)s1" .
result: 0

query: I would be grateful if you could share the reported inhibition at 5 µg/mL for "CC1(C)OC(=O)C(=Cc2ccc(Br)s2)C1=O" .
result: 96

query: I would be grateful if you could share the reported inhibition at 5 µg/mL for "Cc1ccc(C=CC=C2C(=O)CNC2=O)s1" .
result: 0

query: I would be grateful if you could share the reported inhibition at 5 µg/mL for "COc1ccc(C=C2C(=O)COC2=O)c(OC)c1" .
result: 38

query: I would be grateful if you could share the reported inhibition at 5 µg/mL for "Cc1ccc(C=CC=C2C(=O)COC2=O)s1" .
result: 71

query: I would be grateful if you could share the reported inhibition at 5 µg/mL for "Cc1ccsc1C=C1C(=O)OC(C)(C)C1=O" .
result: 99

query: I would be grateful if you could share the reported inhibition at 5 µg/mL for "O=C1CNC(=O)C1=Cc1ccc(Br)s1" .
result: 0

query: I would be grateful if you could share the reported inhibition at 5 µg/mL for "CCOC(=O)c1ccc(C=C2C(=O)OC(C)(C)C2=O)s1" .
result: 18

query: I would be grateful if you could share the reported inhibition at 5 µg/mL for "Cc1ccc(C=C2C(=O)OC(C)(C)C2=O)s1" .
result: 97

query: I would be grateful if you could share the reported inhibition at 5 µg/mL for "O=C1COC(=O)C1=CC=Cc1ccc(Br)s1" .
result: 99

query: I would be grateful if you could share the reported inhibition at 5 µg/mL for "Cc1ccc(C=C2C(=O)CNC2=O)s1" .
result: 0

query: I would be grateful if you could share the reported inhibition at 5 µg/mL for "O=C1COC(=O)C1=Cc1ccc(C(=O)O)s1" .
result: 0

query: I would be grateful if you could share the reported inhibition at 5 µg/mL for "Cc1ccc(C=C2C(=O)COC2=O)s1" .
result: 97

query: I would be grateful if you could share the reported inhibition at 5 µg/mL for "Cc1ccsc1C=C1C(=O)CNC1=O" .
result: 15

query: I would be grateful if you could share the reported inhibition at 5 µg/mL for "O=C1COC(=O)C1=Cc1ccc(I)s1" .
result: 0

query: I would be grateful if you could share the reported inhibition at 5 µg/mL for "CN(C)c1ccc(C=C2C(=O)COC2=O)cc1" .
result: 94

query: I would be grateful if you could share the reported inhibition at 5 µg/mL for "O=C1CSC(=O)C1=Cc1ccc(Br)s1" .
result: 30

query: I would be grateful if you could share the reported inhibition at 5 µg/mL for "CCOC(=O)c1ccc(C=C2C(=O)COC2=O)s1" .
result: 0

query: I would be grateful if you could share the reported inhibition at 5 µg/mL for "CCOC(=O)c1ccc(C=C2C(=O)CNC2=O)s1" .
result: 32

query: I would be grateful if you could share the reported inhibition at 5 µg/mL for "Cc1ccc(C=C2C(=O)CSC2=O)s1" .
result: 41

query: I would be grateful if you could share the reported inhibition at 5 µg/mL for "Cc1ccsc1C=C1C(=O)COC1=O" .
result: 100
